- Experimental Target: protein-protein interaction between Kras and SOS1 (biotin-tagged human Kras loaded with GDP, His-tagged human SOS1) (Homo sapiens (Human), UniProt P01116, G12D)
- Method: Protein-protein interaction inhibition between Kras and SOS1 (KrasG12D-SOS PPI) using AlphaScreen;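 further: kras produced in E. coli, Ni-coupled donor beads and streptavidin acceptor beads, excitation 680 nm with emission detected at 520–620 nm via singlet oxygen transfer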
- Type: biochemical
- Setup Conditions: AlphaScreen; biotin-tagged human Kras loaded with GDP, His-tagged human SOS1; read-out: KRAS G12D-SOS PPI IC50
Numbered stars: 1 amine (or outer) side, 2 acyl side, 3 side chain; on linkers, the order of the positions; unused ones are H or OH. Bridge positions count the residues as written; N and C are the ends. Square brackets hold non-standard residues; d marks the D form. Peptide text beside a SMILES is read from it. * marks the point of attachment. hPhe(3-Cl-4-CF3) = N[C@@H](CCc1ccc(C(F)(F)F)c(Cl)c1)C(=O)O; hPhe(3-F,4-CF3) = N[C@@H](CCc1ccc(C(F)(F)F)c(F)c1)C(=O)O; X15 = O=C([C@H](CCc1cc(Cl)c(Cl)c(Cl)c1)N[*:1])[*:2]; hPhe(4-CF3) = N[C@@H](CCc1ccc(C(F)(F)F)cc1)C(=O)O; NMePhe(4-Cl) = CN[C@@H](Cc1ccc(Cl)cc1)C(=O)O; NMedβ3hAla = C[C@H](CC(=O)[*:2])N(C)[*:1]; NMeCha = CN[C@@H](CC1CCCCC1)C(=O)O; NEtLeu = CCN[C@@H](CC(C)C)C(=O)O; NMeF = CN[C@@H](Cc1ccccc1)C(=O)O; NMeD = CN[C@@H](CC(=O)O)C(=O)O; NMeL = CN[C@@H](CC(C)C)C(=O)O; NMeV = CN[C@H](C(=O)O)C(C)C; d(β3hA) = C[C@@H](N)CC(=O)O; NMeA = CN[C@@H](C)C(=O)O; NMeAib = CNC(C)(C)C(=O)O; Piperidide = C1CCN(*)CC1; Ac5c = NC1(C(=O)O)CCCC1; Aze = O=C(O)[C@@H]1CCN1; Sar = CNCC(=O)O
Task for the reader: assign each of the following compounds its reported pIC50.
In plain terms, pIC50 is the concentration in mol/L turned into minus its base-10 logarithm.

Qu. Value lookup for pIC50; key = CC[C@H](C)[C@@H]1NC(=O)[C@H](C)N(C)C(=O)C[C@@H](C(=O)N2CCCCC2)N(C)C(=O)[C@H](C(C)C)N(C)C(=O)C2(CCCC2)NC(=O)[C@@H]2CCCN2C(=O)[C@H](CCc2cc(Cl)c(Cl)c(Cl)c2)NC(=O)CN(C)C(=O)[C@H](CC2CCCCC2)N(C)C(=O)CN(C)C(=O)CN(C)C1=O [Compound 2068] ([NMeA]I[Sar][Sar][NMeCha][Sar][X15]P[Ac5c][NMeV][NMeD]-Piperidide; lactam N-11)
Ans. 8.77

Qu. Request the reported pIC50 associated with CC[C@H](C)[C@@H]1NC(=O)[C@H](CC(C)C)N(CC)C(=O)C[C@@H](C(=O)N2CCCCC2)N(C)C(=O)[C@H](C(C)C)N(C)C(=O)C2(CCCC2)NC(=O)[C@@H]2CCCN2C(=O)[C@H](CCc2ccc(C(F)(F)F)c(Cl)c2)NC(=O)CN(C)C(=O)[C@H](CC2CCCCC2)N(C)C(=O)[C@@H]2CCN2C(=O)[C@H](C)N(C)C1=O [Compound 667] ([NEtLeu]I[NMeA][Aze][NMeCha][Sar][hPhe(3-Cl-4-CF3)]P[Ac5c][NMeV][NMeD]-Piperidide; lactam N-11)
Ans. 8.29

Qu. Any idea what its pIC50 is? The compound is CC[C@H](C)[C@@H]1NC(=O)[C@H](CC(C)C)N(C)C(=O)C[C@@H](C)N(C)C(=O)[C@H](CC(C)C)NC(=O)C(C)(C)N(C)C(=O)[C@H](Cc2ccccc2)NC(=O)[C@H](CCc2ccc(C(F)(F)F)c(F)c2)NC(=O)CN(C)C(=O)[C@H](Cc2ccc(Cl)cc2)N(C)C(=O)CN(C)C(=O)CN(C)C1=O [Compound 471] (cyclo(F[NMeAib]L[NMedβ3hAla][NMeL]I[Sar][Sar][NMePhe(4-Cl)][Sar][hPhe(3-F,4-CF3)]))
Ans. 7.24

Qu. Sample CC[C@H](C)[C@@H]1NC(=O)[C@H](C)N(C)C(=O)C[C@@H](C)NC(=O)[C@H](CC(C)C)N(C)C(=O)[C@H](Cc2ccccc2)N(C)C(=O)[C@H](CC(C)C)NC(=O)[C@H](CCc2ccc(C(F)(F)F)cc2)NC(=O)CN(C)C(=O)[C@H](Cc2ccc(Cl)cc2)N(C)C(=O)CN(C)C(=O)CN(C)C1=O [Compound 271] (cyclo(I[Sar][Sar][NMePhe(4-Cl)][Sar][hPhe(4-CF3)]L[NMeF][NMeL][d(β3hA)][NMeA])) — what was its pIC50?
Ans. 7.19

Qu. Which measured pIC50 value corresponds to CC[C@H](C)[C@@H]1NC(=O)[C@H](C)N(C)C(=O)C[C@@H](C)NC(=O)[C@H](CC(C)C)N(C)C(=O)[C@H](C(C)C)N(C)C(=O)[C@H](CC(C)C)N(C)C(=O)[C@H](CCc2ccc(C(F)(F)F)cc2)NC(=O)CN(C)C(=O)[C@H](Cc2ccc(Cl)cc2)N(C)C(=O)CN(C)C(=O)CN(C)C1=O [Compound 588] (cyclo(I[Sar][Sar][NMePhe(4-Cl)][Sar][hPhe(4-CF3)][NMeL][NMeV][NMeL][d(β3hA)][NMeA])) ?
Ans. 6.44
